biological target: Fatty acid synthase (Homo sapiens) (UniProt P49327); assay: inhibition of human FAS-TE enzyme activity – biochemical, fluorescence intensity, uHTS, primary screen (AID 602261); details: recombinant FAS-TE, OMFH fluorogenic substrate, fluorescence endpoint; at 15 µM; stronger effect = higher value;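 further: 0% = DMSO with enzyme and 100% = substrate without enzyme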
Sequence (P49327 whole entry, looked up): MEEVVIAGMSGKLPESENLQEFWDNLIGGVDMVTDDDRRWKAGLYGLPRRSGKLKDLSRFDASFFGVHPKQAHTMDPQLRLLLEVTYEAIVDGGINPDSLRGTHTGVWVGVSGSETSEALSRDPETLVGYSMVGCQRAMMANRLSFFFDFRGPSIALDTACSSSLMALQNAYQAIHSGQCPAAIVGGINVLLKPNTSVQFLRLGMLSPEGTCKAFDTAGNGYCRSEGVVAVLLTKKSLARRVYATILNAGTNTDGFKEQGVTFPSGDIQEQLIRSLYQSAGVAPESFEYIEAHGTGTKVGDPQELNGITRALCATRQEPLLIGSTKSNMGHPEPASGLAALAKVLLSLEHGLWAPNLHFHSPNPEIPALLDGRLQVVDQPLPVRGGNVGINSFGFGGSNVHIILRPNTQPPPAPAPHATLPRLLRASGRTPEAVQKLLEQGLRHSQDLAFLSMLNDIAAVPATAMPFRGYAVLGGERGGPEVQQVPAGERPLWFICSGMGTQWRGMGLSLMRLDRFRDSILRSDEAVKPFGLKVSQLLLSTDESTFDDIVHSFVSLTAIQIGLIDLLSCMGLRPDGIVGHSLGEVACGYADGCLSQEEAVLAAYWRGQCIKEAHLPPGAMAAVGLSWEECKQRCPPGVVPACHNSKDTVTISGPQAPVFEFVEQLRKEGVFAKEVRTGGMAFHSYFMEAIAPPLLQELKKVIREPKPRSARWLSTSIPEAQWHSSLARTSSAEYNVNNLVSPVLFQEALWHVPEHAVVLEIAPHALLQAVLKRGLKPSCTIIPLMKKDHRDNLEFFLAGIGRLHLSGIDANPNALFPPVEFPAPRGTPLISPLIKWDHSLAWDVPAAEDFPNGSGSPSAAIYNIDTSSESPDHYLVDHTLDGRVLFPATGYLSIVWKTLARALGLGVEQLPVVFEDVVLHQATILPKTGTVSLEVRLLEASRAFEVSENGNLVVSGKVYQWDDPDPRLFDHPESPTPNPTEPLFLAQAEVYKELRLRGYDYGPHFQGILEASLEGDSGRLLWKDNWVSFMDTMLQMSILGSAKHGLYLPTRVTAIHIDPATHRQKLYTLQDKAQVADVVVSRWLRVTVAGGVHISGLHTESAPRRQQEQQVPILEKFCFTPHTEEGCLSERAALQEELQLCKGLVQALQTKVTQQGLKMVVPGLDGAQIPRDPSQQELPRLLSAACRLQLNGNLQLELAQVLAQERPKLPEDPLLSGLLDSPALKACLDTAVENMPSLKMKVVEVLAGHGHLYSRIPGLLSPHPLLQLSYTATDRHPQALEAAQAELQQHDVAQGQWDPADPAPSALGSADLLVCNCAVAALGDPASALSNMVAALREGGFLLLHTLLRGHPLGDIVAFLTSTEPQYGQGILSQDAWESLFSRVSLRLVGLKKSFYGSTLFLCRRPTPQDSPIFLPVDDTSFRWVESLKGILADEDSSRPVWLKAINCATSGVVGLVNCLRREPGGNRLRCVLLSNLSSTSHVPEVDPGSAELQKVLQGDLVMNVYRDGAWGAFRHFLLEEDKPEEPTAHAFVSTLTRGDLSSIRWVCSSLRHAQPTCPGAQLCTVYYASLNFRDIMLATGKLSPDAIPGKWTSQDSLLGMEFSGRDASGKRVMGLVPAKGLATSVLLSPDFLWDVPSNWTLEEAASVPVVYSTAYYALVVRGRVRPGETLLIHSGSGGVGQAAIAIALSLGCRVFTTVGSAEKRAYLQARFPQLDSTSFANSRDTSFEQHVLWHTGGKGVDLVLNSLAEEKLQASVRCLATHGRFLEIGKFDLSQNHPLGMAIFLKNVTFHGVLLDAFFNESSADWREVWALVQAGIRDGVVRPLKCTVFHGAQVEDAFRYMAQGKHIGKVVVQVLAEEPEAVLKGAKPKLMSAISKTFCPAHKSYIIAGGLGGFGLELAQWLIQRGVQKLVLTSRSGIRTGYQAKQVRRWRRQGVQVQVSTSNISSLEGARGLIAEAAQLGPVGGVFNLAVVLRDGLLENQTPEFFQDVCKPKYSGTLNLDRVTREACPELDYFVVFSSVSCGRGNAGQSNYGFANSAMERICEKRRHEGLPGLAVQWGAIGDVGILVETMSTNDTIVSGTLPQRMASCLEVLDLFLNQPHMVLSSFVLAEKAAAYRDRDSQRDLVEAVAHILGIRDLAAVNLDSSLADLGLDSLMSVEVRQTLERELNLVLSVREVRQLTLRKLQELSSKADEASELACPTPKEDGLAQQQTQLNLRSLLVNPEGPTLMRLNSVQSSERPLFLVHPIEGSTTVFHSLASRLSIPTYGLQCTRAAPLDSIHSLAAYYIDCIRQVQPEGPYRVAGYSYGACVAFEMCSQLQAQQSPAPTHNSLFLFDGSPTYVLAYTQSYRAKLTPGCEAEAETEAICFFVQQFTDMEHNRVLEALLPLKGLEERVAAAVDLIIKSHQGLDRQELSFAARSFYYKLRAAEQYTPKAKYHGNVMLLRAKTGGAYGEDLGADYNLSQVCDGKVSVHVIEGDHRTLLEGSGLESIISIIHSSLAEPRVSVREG
The whole screen tested about 360,000 compounds, of which about 2,400 (0.67%) were called active. What follows is part of a selection rich in actives, with near analogues and random picks from the rest.
Give inhibition for every item shown.
Unit % implied. Number only.

Task: Recorded inhibition for `Cc1occc1C(=O)N/N=C/c1ccc(-c2cccc([N+](=O)[O-])c2)o1` , please?
Result: 20.7

Task: I have this compound here, `Cc1sc2nc(-c3ccccc3F)oc(=O)c2c1C` , and I need its recorded inhibition.
Result: 54.7

Task: I have this compound here, `O=C(Cc1ccc(Cl)c(Cl)c1)Nc1ccc(SC(F)F)cc1` , and I need its recorded inhibition.
Result: 66.1

Task: Which inhibition is listed for `CCOc1ccc(C(=O)NC2CCN(CC(=O)NCc3cccs3)CC2)cc1` ?
Result: -3.1

Task: May I ask what inhibition has been recorded for `COc1ccc(-c2csc3nc(-c4ccccc4F)oc(=O)c23)cc1OC` ?
Result: 65.3

Task: # get_value(readout='inhibition', item= `COCCCNC(=O)CNC(=O)c1nn(-c2ccc(OC)cc2)c(=O)c2ccccc12` )
Result: -6.6

Task: Form field: reported inhibition of `Cc1noc(C)c1NC(=O)Nc1ccc2c(c1)C(=O)N([C@H](C)CO)C[C@H](C)[C@@H](CN(C)C(=O)Nc1ccccc1)O2`
Result: -5.3

Task: Would you kindly share the measured inhibition for `COc1ccccc1-c1nc(C(F)(F)F)c(OC)o1` ?
Result: -1.4

Task: So what's the measured inhibition for this one? CN1CCOC1c1ccc(C2OCCN2C)cc1 (stereo unspecified)
Result: -6.4

Task: Given `Cc1sc2nc(SCCO)n(-c3ccccc3)c(=O)c2c1C` , state its recorded inhibition.
Result: -4.5

Task: Using the record for CCNC(=O)NNC(=O)C1CC(c2cccs2)=NO1 (stereo unspecified) , report its inhibition.
Result: -1.4
